- PROTOCOL TEXT: Human HepG2 cell viability assay in 384 well format
- Format: toxicity, cell-based
- Set-up: dose 125 nL, time 70.5 hour; concentration not given beside the values
- CONDITION PARAMETERS: HepG2 cells, read-out: Inhibition
REPORTED PROPERTY: cytotoxicity at 70.5 h (%)

CC(C)CN1C(=O)C[C@@H]2[C@@H]1CCN2Cc1cccc(C#N)c1	2.48
CCS(=O)(=O)N1CCCC2(CCCN2C(=O)c2cn(C)cn2)C1 (stereo unspecified)	-8.17
CCOCC1CN(CC2CCC2)Cc2nnn(CC3CC3)c21 (stereo unspecified)	-0.482
O=C(c1cscn1)N1CC[C@@H]2[C@@H]1CCN2CC1CCOCC1	-1.87
CCC(=O)N1CCCC1c1csc(Nc2cnccn2)n1 (stereo unspecified)	-9.64
O=C(NC1CCN(CC2CC2)C1)c1ccc(N2CCC(O)CC2)cc1 (stereo unspecified)	-7.24
COC(CNC(=O)c1ccc(NC(C)=O)cc1)c1cccc(Cl)c1 (stereo unspecified)	-5.6
CC(C)CNc1c(NCc2ccco2)c(=O)c1=O	-11.5
CCn1cc(-c2cc(C(F)F)n3nc(CC(=O)O)nc3n2)cn1	0.375
Cc1cc(NC(=O)CN2CCn3c(nnc3C3CC3)C2)no1	-5.22
CN(Cc1ccco1)C(=O)C1CCCc2ccccc21 (stereo unspecified)	-3.68
